- System: Panc2.13 (Pancreatic)
- Run description: Proliferation of Panc2.13
- Format: cell-based
Give ratio (IC50 of K101)/(IC50 of compound) Panc2.13 for every item shown.
Quick one: just the number, no unit, thanks!

## Task # get_value(readout= ratio (IC50 of K101)/(IC50 of compound) Panc2.13, system= Panc2.13 (Pancreatic)) for CC1=C[C@H]2[C@@]3(O)[C@H](C)C[C@]4(OC(=O)[C@H](N)CCCCCCc5ccccc5)[C@H]([C@@H]3C=C(CO)C[C@]2(O)C1=O)C4(C)C
## Result 13.4

## Task # get_value(readout= ratio (IC50 of K101)/(IC50 of compound) Panc2.13, system= Panc2.13 (Pancreatic)) for CC1=C[C@H]2[C@@]3(O)[C@H](C)C[C@]4(OC(=O)C(C)(C)C)[C@H]([C@@H]3C=C(CO)C[C@]2(O)C1=O)C4(C)C
## Result 6.29

## Task # get_value(readout= ratio (IC50 of K101)/(IC50 of compound) Panc2.13, system= Panc2.13 (Pancreatic)) for CC1=C[C@H]2[C@@]3(O)[C@H](C)C[C@]4(OC(=O)[C@@H](N)CCC5CCCCC5)[C@H]([C@@H]3C=C(CO)C[C@]2(O)C1=O)C4(C)C
## Result 20.5

###

- Test system: Mino (Lymphoma)
- Run description: Proliferation of Mino
- Assay type: cell-based
Measurement type: ratio (IC50 of K101)/(IC50 of compound) Mino
Quick one: just the number, no unit, thanks!

## Task Can you share its ratio (IC50 of K101)/(IC50 of compound) Mino? I mean this compound: CC1=C[C@H]2[C@@]3(O)[C@H](C)C[C@]4(OC(=O)C(C)(C)C)[C@H]([C@@H]3C=C(CO)C[C@]2(O)C1=O)C4(C)C
## Result 6.82

## Task Can you share its ratio (IC50 of K101)/(IC50 of compound) Mino? I mean this compound: CC1=C[C@H]2[C@@]3(O)[C@H](C)C[C@]4(OC(=O)[C@H](N)CCCCCCc5ccccc5)[C@H]([C@@H]3C=C(CO)C[C@]2(O)C1=O)C4(C)C
## Result 21.3

## Task Can you share its ratio (IC50 of K101)/(IC50 of compound) Mino? I mean this compound: CC1=C[C@H]2[C@@]3(O)[C@H](C)C[C@]4(OC(=O)CCCc5ccccc5)[C@H]([C@@H]3C=C(CO)C[C@]2(O)C1=O)C4(C)C
## Result 37.5

## Task Can you share its ratio (IC50 of K101)/(IC50 of compound) Mino? I mean this compound: CC1=C[C@H]2[C@@]3(O)[C@H](C)C[C@]4(OC(=O)[C@@H](N)CCc5ccccc5)[C@H]([C@@H]3C=C(CO)C[C@]2(O)C1=O)C4(C)C
## Result 3.18

## Task Can you share its ratio (IC50 of K101)/(IC50 of compound) Mino? I mean this compound: CC1=C[C@H]2[C@@]3(O)[C@H](C)C[C@]4(OC(=O)[C@@H](N)Cc5ccc(C(F)(F)F)cc5)[C@H]([C@@H]3C=C(CO)C[C@]2(O)C1=O)C4(C)C
## Result 6.2

## Task Can you share its ratio (IC50 of K101)/(IC50 of compound) Mino? I mean this compound: CC1=C[C@H]2[C@@]3(O)[C@H](C)C[C@]4(OC(=O)[C@H](N)C(C)(C)c5ccc(C(F)(F)F)cc5)[C@H]([C@@H]3C=C(CO)C[C@]2(O)C1=O)C4(C)C
## Result 3.88

## Task Can you share its ratio (IC50 of K101)/(IC50 of compound) Mino? I mean this compound: CC1=C[C@H]2[C@@]3(O)[C@H](C)C[C@]4(OC(=O)[C@@H](N)C5Cc6ccccc6C5)[C@H]([C@@H]3C=C(CO)C[C@]2(O)C1=O)C4(C)C
## Result 5.5

## Task Can you share its ratio (IC50 of K101)/(IC50 of compound) Mino? I mean this compound: CC1=C[C@H]2[C@@]3(O)[C@H](C)C[C@]4(OC(=O)[C@@H](N)CCCCCCc5ccccc5)[C@H]([C@@H]3C=C(CO)C[C@]2(O)C1=O)C4(C)C
## Result 52.2

## Task Can you share its ratio (IC50 of K101)/(IC50 of compound) Mino? I mean this compound: CC1=C[C@H]2[C@@]3(O)[C@H](C)C[C@]4(OC(=O)[C@@H](N)CCC5CCCCC5)[C@H]([C@@H]3C=C(CO)C[C@]2(O)C1=O)C4(C)C
## Result 33

## Task Can you share its ratio (IC50 of K101)/(IC50 of compound) Mino? I mean this compound: CC1=C[C@H]2[C@@]3(O)[C@H](C)C[C@]4(OC(=O)CCC5CCCC5)[C@H]([C@@H]3C=C(CO)C[C@]2(O)C1=O)C4(C)C
## Result 11

## Task Can you share its ratio (IC50 of K101)/(IC50 of compound) Mino? I mean this compound: CC1=C[C@H]2[C@@]3(O)[C@H](C)C[C@]4(OC(=O)[C@@H](N)CC5CCCCC5)[C@H]([C@@H]3C=C(CO)C[C@]2(O)C1=O)C4(C)C
## Result 7.33

## Task Can you share its ratio (IC50 of K101)/(IC50 of compound) Mino? I mean this compound: CC1=C[C@H]2[C@@]3(O)[C@H](C)C[C@]4(OC(=O)[C@@H](N)[C@]56C[C@H]7C[C@H](C[C@H](C7)C5)C6)[C@H]([C@@H]3C=C(CO)C[C@]2(O)C1=O)C4(C)C
## Result 52.2
